tested_system: T1, human GREM1 (hGREM1-His; SEQ ID NO: 595) (human, UniProt O60565 25-184)
T1 construct: also called biotin-hGREM1-His; recombinant human GREM1 protein
T1 sequence: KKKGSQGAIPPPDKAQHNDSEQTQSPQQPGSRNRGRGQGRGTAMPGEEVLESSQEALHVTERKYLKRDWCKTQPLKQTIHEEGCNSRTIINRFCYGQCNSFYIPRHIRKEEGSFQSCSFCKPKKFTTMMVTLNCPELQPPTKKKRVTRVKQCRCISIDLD
experiment_summary: SPR, Biacore T200, 37 C, mAb captured, hGREM1-His injected;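 further: HBS-EP running buffer containing heparin, association and dissociation phases tracked, KD computed as koff over kon and half-life derived from koff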
recorded_endpoint: koff (s⁻¹)
One number for each entry, in s⁻¹.

Can you give me koff for all of these, one by one?
1. H4H6240P (antibody, human IgG4, V domains shown, H4H prefix = human IgG4 Fc) VH: QVQLVESGGGVVQPGRSLRLSCAASGFTFSSYGMHWVRQAPGKGLEWVAVIWYDGSNKYYADSVKGRFIISRDNSKNMMYLQMNSLRAEDTAVYYCAREDNWNYAFDYWGQGTLVTVSS VL: EIVMTQSPATLSVSPGERATLSCRASQSISSNLAWYQQKPGQAPRLLIYDSSTRATGIPARFSGSGSGTQFTLTISSLQSEDFALYYCQQYSNWPPFTFGPGTKVDIK
2. H4H6251P (antibody, human IgG4, V domains shown, H4H prefix = human IgG4 Fc) VH: QVQLVESGGGVVQPGKSLRLSCAASGFTFSRYGMHWVRQAPGKGLEWVAVIWYDGSNKYYADSVKGRFTISRDNSKNTLYLQMNSLRADDTAMYYCARDDYGDSPGFDFWGQGTLVTVSS VL: EIVMTQSPATLSVSPGERATLSCRASQSVSSNLAWYQQKPGQAPRLLIYDASTRATGIPARFSGTGSGTEFTLTISSLQSEDFALYYCQQYDDWPPWTFGQGTKVEIK
3. H4H2892N (antibody, human IgG4, V domains shown, H4H prefix = human IgG4 Fc) VH: QVQLVESGGGVVQPGRSLRLSCAASGFTFSSYGIHWVRQAPGKGLEWVAILWYDGSNKYYADSVKGRFTISRDNSKTTLYLQMNSLRAEDTAVYYCARENYNDLNFDLWGRGTLVTVSS VL: DIQLTQSPSFLSASVGDRVTITCWASQGISSYLAWYQHKPGKAPKLLIYAASTLQSGVPSRFSGSGSGIEFTLTISSLQPEDFATYYCQQLKSYPPWTFGQGTKVEIR

## Output
[0.00118, 0.00694, 0.0004]

For the 2 binders below, give their koff values.
1. H4H6252P (antibody, human IgG4, V domains shown, H4H prefix = human IgG4 Fc; also called H4H6252S) VH: QVQLVESGGGVVQPGRSLRLSCAASGFTFSNYGMHWVRQAPGRGLEWVAVIWFDGSNKYYADSVKGRFTISRDNSKNTLYLQMNSLRSEDTAVYYCTRDDYGDYDYPFDYWGQGTLVTVSS VL: DIQMTQSPSSLSASVGDRVTITCRASQGIRNDLGWYQQKPGKAPKRLIYAASSLQSGVPSRFSGSGSGTEFTLTISSLQPEDFATYYCLQYNTYPPFTFGPGTKVDIK
2. H4H6245P (antibody, human IgG4, V domains shown, H4H prefix = human IgG4 Fc) VH: EVQLVESGGGLVQPGGSLRLSCAASGFTFNSFWMSWVRQAPGKGLEWVANIKQDGSEKYYVDSVKGRFTISRDNAKNSVYLQMNSLRAEDTAVYYCARDLVTSFDYWGQGTLVTVSS VL: DIQMTQSPSSLSASVGDRVTITCQASQDINNYLNWYQQKPGKAPKLLIYDASYLETGVPSGFSGSGSGTDFTFTISSLQPEDIATYYCQQYDSLPYTFGQGTKLEIK

## Output
1. 0.000459
2. 0.000262
